target: UniProt P36888; assay: radiometric filter-binding kinase assay, Kinase HotSpot; conditions: compound 0.5 µM; ATP 10 µM
Sequence (P36888 whole entry, looked up): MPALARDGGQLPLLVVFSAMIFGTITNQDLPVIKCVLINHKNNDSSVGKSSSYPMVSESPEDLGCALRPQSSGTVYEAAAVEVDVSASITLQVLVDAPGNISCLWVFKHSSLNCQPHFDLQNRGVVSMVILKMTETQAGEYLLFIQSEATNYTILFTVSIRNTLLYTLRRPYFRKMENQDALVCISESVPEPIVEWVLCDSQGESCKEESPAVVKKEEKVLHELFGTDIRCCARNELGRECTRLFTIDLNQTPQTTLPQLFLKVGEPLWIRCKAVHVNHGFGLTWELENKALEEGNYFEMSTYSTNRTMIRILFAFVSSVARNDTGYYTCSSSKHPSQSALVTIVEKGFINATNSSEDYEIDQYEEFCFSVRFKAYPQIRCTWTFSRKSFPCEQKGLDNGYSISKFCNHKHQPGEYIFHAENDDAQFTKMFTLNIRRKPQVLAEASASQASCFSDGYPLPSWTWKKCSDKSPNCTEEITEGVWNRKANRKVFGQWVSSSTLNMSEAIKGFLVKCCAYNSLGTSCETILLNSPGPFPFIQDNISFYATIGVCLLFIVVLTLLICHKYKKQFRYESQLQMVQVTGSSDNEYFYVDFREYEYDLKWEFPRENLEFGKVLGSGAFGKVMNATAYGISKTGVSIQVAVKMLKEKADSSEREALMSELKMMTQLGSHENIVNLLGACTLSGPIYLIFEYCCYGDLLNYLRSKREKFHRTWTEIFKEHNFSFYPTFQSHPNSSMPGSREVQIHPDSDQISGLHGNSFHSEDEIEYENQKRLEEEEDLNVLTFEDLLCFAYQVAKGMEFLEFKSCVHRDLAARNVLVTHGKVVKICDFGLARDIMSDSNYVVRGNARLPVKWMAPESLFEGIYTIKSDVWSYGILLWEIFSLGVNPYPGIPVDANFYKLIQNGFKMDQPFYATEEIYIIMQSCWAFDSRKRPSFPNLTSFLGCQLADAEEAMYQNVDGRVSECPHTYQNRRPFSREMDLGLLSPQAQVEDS
Each entry below carries its recorded residual activity.
// return numeric value only (unit: %, not printed)

Record excerpt, results attached:
{"smiles_entry": "O=c1cc(N2CCNCC2)oc2c(-c3ccccc3)cccc12", "study_target": "UniProt P36888", "residual activity [%]": 108}
{"smiles_entry": "NC(=O)c1ccc(N(C(N)=O)c2c(F)cccc2F)nc1-c1ccc(F)cc1F", "study_target": "UniProt P36888", "residual activity [%]": 97.2}
{"smiles_entry": "CCCNC(=O)Nc1ccc(Oc2ncnc3cc(OC)c(OC)cc23)cc1Cl", "study_target": "UniProt P36888", "residual activity [%]": 82.1}
{"smiles_entry": "O=C(Nc1ccc(Cl)cc1)c1ccccc1NCc1ccncc1", "study_target": "UniProt P36888", "residual activity [%]": 91.5}
{"smiles_entry": "COc1ccc(-c2cnc3c(-c4ccsc4)cnn3c2)cc1", "study_target": "UniProt P36888", "residual activity [%]": 11.1}

Could you now consider this next compound?
Task item: Return reported residual activity; argument: "O=C1Cc2c([nH]c3ccc([N+](=O)[O-])cc23)-c2ccccc2N1"
Reply: 19.7

* * *

molecular target: PRKCA (human) (UniProt P17252); experiment: radiometric filter-binding kinase assay, Kinase HotSpot; settings: compound 0.5 µM; ATP 10 µM
Each entry below carries its recorded residual activity.
// return numeric value only (unit: %, not printed)

{"compound": "O=C1Cc2c([nH]c3ccc([N+](=O)[O-])cc23)-c2ccccc2N1", "residual activity [%]": 59.9}
{"compound": "CS(=O)c1ccc(-c2nc(-c3ccc(F)cc3)c(-c3ccncc3)[nH]2)cc1 (stereo not given)", "residual activity [%]": 92.3}
{"compound": "C#Cc1cccc(Nc2ncnc3cc(OCCOC)c(OCCOC)cc23)c1", "residual activity [%]": 88.6}

Task item: Return reported residual activity; argument: "COc1ccc(-c2cnc3c(-c4ccsc4)cnn3c2)cc1"
Reply: 101

Task item: Return reported residual activity; argument: "NC(=O)c1ccc(N(C(N)=O)c2c(F)cccc2F)nc1-c1ccc(F)cc1F"
Reply: 86

Task item: Return reported residual activity; argument: "COc1cc2nccc(Oc3ccc(NC(=S)NC(=O)c4ccccc4C)cc3)c2cc1OC"
Reply: 91.3

* * *

Each entry below carries its recorded residual activity.
biological target: MARK3 (human); assay: radiometric filter-binding kinase assay, Kinase HotSpot; details: compound 0.5 µM; ATP 10 µM
Note to self: number, then unit, no commentary.

Task item: Return reported residual activity; argument: "Oc1ccc(-c2nc(-c3ccc(F)cc3)c(-c3ccncc3)[nH]2)cc1"
Reply: 105%

Task item: Return reported residual activity; argument: "COc1cc2nccc(Oc3ccc(NC(=S)NC(=O)c4ccccc4C)cc3)c2cc1OC"
Reply: 79.2%

Task item: Return reported residual activity; argument: "C#Cc1cccc(Nc2ncnc3cc(OCCOC)c(OCCOC)cc23)c1"
Reply: 96.4%

Task item: Return reported residual activity; argument: "Nc1n[nH]c2nnc(-c3c(-c4ccccc4)nn4ccccc34)cc12"
Reply: 99.3%

Task item: Return reported residual activity; argument: "Cc1ccc(NC(=O)c2ccc(CN3CCN(C)CC3)cc2)cc1Nc1nc(-c2cccnc2)cs1"
Reply: 100%

Task item: Return reported residual activity; argument: "NC(=O)c1ccc(N(C(N)=O)c2c(F)cccc2F)nc1-c1ccc(F)cc1F"
Reply: 98.1%

Task item: Return reported residual activity; argument: "O=C1Nc2ccccc2/C1=C\c1c(Cl)[nH]c2ccccc12"
Reply: 104%

Task item: Return reported residual activity; argument: "Clc1ccc(Nc2nnc(Cc3ccncc3)c3ccccc23)cc1"
Reply: 102%

Task item: Return reported residual activity; argument: "O=c1cc(N2CCNCC2)oc2c(-c3ccccc3)cccc12"
Reply: 88.8%

Task item: Return reported residual activity; argument: CSc1nc(-c2ccc(F)cc2)c(-c2ccnc(NC(C)c3ccccc3)c2)[nH]1 (stereo not given)
Reply: 100%
